# Tested on: SNB-75 CNS
# protocol-description: NCI-60 one-dose screen, 48 h (100 = growth as untreated, 0 = no growth, -100 = all killed)
# condition-set: 10 µM unless noted
About 83,000 compounds went through this panel and 20% of them were active in at least one assay; those are over-represented in the sample as a whole.
Field: label. Allowed values: yes (1) (growth < 50%) or no (0) (growth >= 50%).

| structure-string | label-class |
| --- | --- |
| Fc1ccccc1/C=C(/C1=NCCN1)n1cnc2ccccc21 | no (0) |
| C/C(=N\NC(=S)Nc1ccc(Br)cc1)c1cc2ccccc2oc1=O | yes (1) |
| O=S(=O)(Nc1ccc2c(c1)OC(F)(F)O2)c1ccc(-c2cnc(C3CC3)o2)cc1 | yes (1) |
| COc1ccc([C@@H]2[C@@H](O)C(=O)N2c2cc(OC)c(OC)c(OC)c2)cc1Cl | no (0) |
| CS(=O)(=O)c1ccc2c(c1)c1c(n2S(=O)(=O)c2ccc(Cl)cc2)CCCC1 | yes (1) |

###

Recorded measurements of growth, one per entry
# Tested on: U251 CNS
# protocol-description: NCI-60 one-dose screen, 48 h (100 = growth as untreated, 0 = no growth, -100 = all killed)
# condition-set: 10 µM unless noted
About 83,000 compounds went through this panel and 20% of them were active in at least one assay; those are over-represented in the sample as a whole. Activity calls are given as the source filed them. The calls were made as follows: active = growth percent below 10; inactive = the rest.

| compound | target-entity | growth |
| --- | --- | --- |
| COc1cccc(/C=C/C(=O)c2ccc(NC(=O)COc3cccc4cccnc34)cc2)c1 | U251 CNS | 97.2% (inactive) |
| Cn1c2ccccc2c2c3c(c4c5ccc(Br)cc5oc4c21)C(=O)N(O)C3=O | U251 CNS | 60.5% (inactive) |
| CCOC(=O)c1nn(-c2ccc(C)cc2)c(=O)c2c(N)c(C#N)c(-c3ccc(OC)cc3)cc12 | U251 CNS | 103% (inactive) |
| O=C1Nc2ccc(Cl)cc2/C1=C/c1ccc(OCc2ccc(F)cc2)cc1 | U251 CNS | 95.4% (inactive) |
| C#Cc1ccc(NC(=O)c2ccc(/C=C/C(=O)c3nccn3C)cc2)c(F)c1 | U251 CNS | 5.03% (active) |
| O=C(Nc1ccc(F)cc1)c1cc(-c2ccc(F)cc2F)ccc1O | U251 CNS | 6.63% (active) |
| COc1ccc(-c2nc(SCC(C)C)nc(N/N=C\c3cccc([N+](=O)[O-])c3)c2C#N)cc1 | U251 CNS | 13% (inactive) |
| CCN1C(=O)N(CC)C2SC(N/N=C/c3ccccc3)=NC21 (centres undefined) | U251 CNS | 17.1% (inactive) |
| CN1C(=O)/C(=C/C=C/c2ccco2)SC1=S | U251 CNS | 66.8% (inactive) |
| CN1CCN(c2ccc(C(=O)Nc3cccc(-c4cn(-c5ccc(S(N)(=O)=O)cc5)nn4)c3)cc2C(F)(F)F)CC1 | U251 CNS | 59.6% (inactive) |
| N/C(=N\c1nc2ccc([N+](=O)[O-])cc2s1)C(Cl)(Cl)Cl | U251 CNS | 43.9% (inactive) |
| O=S(=O)(Nc1ccc(C2CC2)cc1)c1ccc(-c2cnc(C3CC3)o2)cc1 | U251 CNS | 68.7% (inactive) |
| Cc1ccc(/C=C/c2nn3c(-c4ccco4)nnc3s2)cc1 | U251 CNS | 101% (inactive) |
| Fc1ccccc1/C=C(/C1=NCCN1)n1cnc2ccccc21 | U251 CNS | 101% (inactive) |
| C=C(C)[C@@H]1CC[C@]2(C(=O)NCCCN(CCC#N)CCC#N)CC[C@]3(C)[C@H](CC[C@@H]4[C@@]5(C)CCC(=O)C(C)(C)[C@@H]5CC[C@]43C)[C@@H]12 | U251 CNS | 97.7% (inactive) |
| CCC(=O)Nc1ccc(-c2nc(-c3cccc(O)c3)c(-c3ccnc(Br)c3)[nH]2)cc1 | U251 CNS | 47.8% (inactive) |
| C=C(C)C(=O)O[C@H]1C[C@@]2(C)OC(=CC2=O)/C(CO)=C\[C@H]2OC(=O)C(=C)[C@H]12 | U251 CNS | -17.7% (active) |
| COc1ccc(Cn2cc3c(c2-c2ccccc2)CCCc2cnoc2-3)cc1 | U251 CNS | 57.7% (inactive) |
| COc1ccc(-c2ccc3c4c(cccc24)C(=O)N(N2C(=O)c4cccc5cccc(c45)C2=O)C3=O)cc1 | U251 CNS | 104% (inactive) |

###

# Test system: SNB-75 CNS
# protocol-description: NCI-60 one-dose screen, 48 h (100 = growth as untreated, 0 = no growth, -100 = all killed)
# condition-set: 10 µM unless noted
The panel holds about 83,000 compounds, 20% with a hit somewhere; the sample as a whole holds those more often. Calls of active or inactive are those of the source. Rule for the calls: active = growth percent below 10; inactive = the rest.
Recorded measurements of growth, one per entry
measurement-name: growth

| structure-string | measurement-name | result |
| --- | --- | --- |
| N#C/C(=C\c1ccc(-c2ccc(F)cc2)o1)C(=O)Nc1ncc(Cc2ccc(Cl)cc2Cl)s1 | growth | 58.3% (inactive) |
| CC[C@@](C)(NC(=O)C(C)(C)NC(=O)[C@@H](NC(=O)[C@@H]1CCCN1C(=O)C(C)(C)NC(=O)[C@H](CC(C)C)NC(=O)CNC(=O)C(C)(C)NC(=O)[C@@H](NC(=O)C(C)(C)NC(=O)[C@H](CCC(N)=O)NC(=O)[C@H](C)NC(=O)C(C)(C)NC(=O)[C@H](C)NC(=O)C(C)(C)NC(=O)[C@@H]1CCCN1C(=O)C(C)(C)NC(C)=O)C(C)C)C(C)C)C(=O)N[C@@H](CCC(N)=O)C(=O)N[C@@H](CCC(N)=O)C(=O)N[C@H](CO)Cc1ccccc1 | growth | 3.47% [4.25 µM] (active) |
| O=C1/C(=C/c2ccccc2[N+](=O)[O-])Oc2ccc(O)cc21 | growth | 54.2% (inactive) |
| COc1cc2c3c(n(CCCNC4CCCC4)c(=O)c2cc1OC)-c1cc2c(cc1C3=O)OCO2 | growth | 84.9% (inactive) |
| Cc1nn(-c2ccccc2)c2nc(CCl)[nH]c(=O)c12 | growth | 93.9% (inactive) |
| CN(c1ccc(Cl)cc1)S(=O)(=O)c1ccc(-c2cnc(C3CC3)o2)cc1 | growth | 43% (inactive) |

###

# Tested on: CAKI-1 renal
# protocol-description: NCI-60 one-dose screen, 48 h (100 = growth as untreated, 0 = no growth, -100 = all killed)
# condition-set: 10 µM
This is part of a sample that, as a whole, favours compounds with a hit. Of some 83,000 tested, about 20% had one in any assay. Active and inactive are the calls of the source. Rule for the calls: active = growth percent below 10; inactive = the rest.

| molecule | growth |
| --- | --- |
| O=c1c2ccccc2nc(COc2ccccc2)n1/N=C/C=C/c1ccccc1 | 103% (inactive) |
| C#C[C@]1(O)CC[C@H]2[C@@H]3CC=C4c5sc(-c6ccccn6)nc5CC[C@]4(C)[C@H]3CC[C@@]21C | 87.7% (inactive) |
| O=C1/C(=C/c2ccccc2[N+](=O)[O-])Oc2ccc(O)cc21 | 48.3% (inactive) |
| CCn1c2ccc(/C=N/OCCCN(C)C)cc2c2cc(/C=N/OCCCN(C)C)ccc21 | -16.5% (active) |
| CC(=O)c1ccc(NC(=O)COc2ccc(C3SCC(=O)N3c3ccc(Br)cc3)cc2)cc1 (stereo not given) | 89.2% (inactive) |

###

Recorded measurements of growth, one per entry
# System: COLO 205 colon
# protocol-description: NCI-60 one-dose screen, 48 h (100 = growth as untreated, 0 = no growth, -100 = all killed)
# condition-set: 10 µM unless noted
# Procedure: Cells are grown in 96 well plates and exposed to the test compound for 48 hours. Compounds are tested at a single concentration, which is 10^-5 M for most compounds. The reported endpoint is percent growth (GI% or GIPRCNT), where numbers from 0 - 100% represent growth inhibition, and numbers from -100% - 0 represent cell death. For example, a value of 40 represents 60% growth inhibition. A value of 0 means no net growth occurred over the course of the experiment. […]
This is part of a sample that, as a whole, favours compounds with a hit. Of some 83,000 tested, about 20% had one in any assay.

| structure-string | growth [%] |
| --- | --- |
| O=C(COc1ccc(/C=C2\SC(=O)NC2=O)cc1)Nc1ccc(C(=O)/C=C/c2cc3ccccc3nc2Cl)cc1 | 96.3 |
| Oc1ccc(CSc2nnc(-c3cnccn3)o2)c2cccnc12 | 85.4 |
| C#C[C@]1(O)CC[C@H]2[C@@H]3CC=C4c5sc(Nc6cc(OC)ccc6OC)nc5CC[C@]4(C)[C@H]3CC[C@@]21C | 18.5 |
| O=C(/C=C1\C=CN(CCCCF)c2ccccc21)n1ccc2ccccc21 | 96.6 |
| O=C1Nc2ccc(Cl)cc2/C1=C/c1ccc(OCc2ccc(F)cc2)cc1 | 99.4 |
| Oc1ccc(-c2nnc(SCc3ccc(O)c4ncccc34)n2-c2ccccc2)cc1 | 28.2 |
| O=C(Nc1cccc(Cl)c1)Nc1nc2ccc([N+](=O)[O-])cc2s1 | -54.2 |
| Fc1ccc(-c2cc3nc(C(Cl)Cl)nc(-c4cccs4)n3n2)cc1 | -23.1 |
| COc1ccc([C@@H]2[C@@H](O)C(=O)N2c2cc(OC)c(OC)c(OC)c2)cc1Cl | -81.1 |
